PROTOCOL DESCRIPTION: dog PK experiment
ASSAY SETUP: in vivo; dog, dosed at 3 mg/kg
READOUT LABEL: AUC (ng·h/mL)
Dear colleague, please return just the value in ng·h/mL, with no unit written.

| MOLECULE | AUC, ng·h/mL |
| --- | --- |
| Cc1cc(C(=O)N[C@H]2CCCCC/C=C\[C@@H]3C[C@@]3(C(=O)NS(=O)(=O)C3CC3)NC(=O)[C@@H]3C[C@@H](Oc4nc5cc(F)ccc5nc4C(F)(F)F)CN3C2=O)no1 [Example 107] | 54000 |
| Cc1cc(C(=O)N[C@H]2CCCCC/C=C\[C@@H]3C[C@@]3(C(=O)NS(=O)(=O)C3(C)CC3)NC(=O)[C@@H]3C[C@@H](Oc4nc5cc(F)cc(Br)c5nc4C)CN3C2=O)no1 [Example 101] | 84000 |

Exercise: Quick one: AUC for O=C(N[C@H]1CCCCC/C=C\[C@@H]2C[C@@]2(C(=O)NS(=O)(=O)C2CC2)NC(=O)[C@@H]2C[C@@H](Oc3nc4ccccc4nc3C(F)(F)F)CN2C1=O)c1ccon1 [Example 15] ?
Key: 3300

Exercise: Also check Cc1onc(C(=O)N[C@H]2CCCCC/C=C\[C@@H]3C[C@@]3(C(=O)NS(=O)(=O)C3CC3)NC(=O)[C@@H]3C[C@@H](Oc4nc5ccccc5nc4C(F)(F)F)CN3C2=O)c1C [Example 16]
Key: 2100

---

PROTOCOL DESCRIPTION: dog PK experiment
ASSAY SETUP: in vivo; dog PK experiment, 3 mg/kg; read-out: F value (bioavailability)
Label n if bioavailability falls below 70%; label y in every other case.

Please review the entries below; each comes with its answer.
| COMPOUND | LABEL |
| --- | --- |
| Cc1cc(C(=O)N[C@H]2CCCCC/C=C\[C@@H]3C[C@@]3(C(=O)NS(=O)(=O)C3CC3)NC(=O)[C@@H]3C[C@@H](Oc4nc5cc(F)ccc5nc4C(C)(F)F)CN3C2=O)no1 [Example 117] | n |
| Cc1cc(C(=O)N[C@H]2CCCCC/C=C\[C@@H]3C[C@@]3(C(=O)NS(=O)(=O)C3(C)CC3)NC(=O)[C@@H]3C[C@@H](Oc4nc5cc(F)ccc5nc4C)CN3C2=O)no1 [Example 23] | y |
| Cc1cc(C(=O)N[C@H]2CCCCC/C=C\[C@@H]3C[C@@]3(C(=O)NS(=O)(=O)C3CC3)NC(=O)[C@@H]3C[C@@H](Oc4nc5cc(F)ccc5nc4C)CN3C2=O)no1 [Example 22] | y |
| Cc1cc(C(=O)N[C@H]2CCCCC/C=C\[C@@H]3C[C@@]3(C(=O)NS(=O)(=O)C3(C)CC3)NC(=O)[C@@H]3C[C@@H](Oc4nc5cc(F)ccc5nc4C(C)(F)F)CN3C2=O)no1 [Example 119] | n |
| Cc1cc(C(=O)N[C@H]2CCCCC/C=C\[C@@H]3C[C@@]3(C(=O)NS(=O)(=O)C3(C)CC3)NC(=O)[C@@H]3C[C@@H](Oc4nc5cc(F)cc(Br)c5nc4C)CN3C2=O)no1 [Example 101] | y |
| Cc1cc(C(=O)N[C@H]2CCCCC/C=C\[C@@H]3C[C@@]3(C(=O)NS(=O)(=O)C3CC3)NC(=O)[C@@H]3C[C@@H](Oc4nc5ccccc5nc4C(F)(F)F)CN3C2=O)no1 [Example 10] | y |
| Cc1cc(C(=O)N[C@H]2CCCCC/C=C\[C@@H]3C[C@@]3(C(=O)NS(=O)(=O)C3CC3)NC(=O)[C@@H]3C[C@@H](Oc4nc5cc(F)ccc5nc4C(F)(F)F)CN3C2=O)no1 [Example 107] | y |
| Cc1cc(C(=O)N[C@H]2CCCCC/C=C\[C@@H]3C[C@@]3(C(=O)NS(=O)(=O)C3CC3)NC(=O)[C@@H]3C[C@@H](Oc4nc5ccccc5nc4C(C)(F)F)CN3C2=O)no1 [Example 2] | y |

Exercise: Hello, I need to know if O=C(N[C@H]1CCCCC/C=C\[C@@H]2C[C@@]2(C(=O)NS(=O)(=O)C2CC2)NC(=O)[C@@H]2C[C@@H](Oc3nc4ccccc4nc3C(F)(F)F)CN2C1=O)c1ccon1 [Example 15] has measured bioavailability not below 70%. Thanks!
Key: y

Exercise: Next: Cc1cc(C(=O)N[C@H]2CCCCC/C=C\[C@@H]3C[C@@]3(C(=O)NS(=O)(=O)C3(C)CC3)NC(=O)[C@@H]3C[C@@H](Oc4nc5cc(F)ccc5nc4C(F)(F)F)CN3C2=O)no1 [Example 111]
Key: y

Exercise: Similarly, Cc1onc(C(=O)N[C@H]2CCCCC/C=C\[C@@H]3C[C@@]3(C(=O)NS(=O)(=O)C3CC3)NC(=O)[C@@H]3C[C@@H](Oc4nc5ccccc5nc4C(F)(F)F)CN3C2=O)c1C [Example 16] ?
Key: n

Exercise: # repeat for Cc1cc(C(=O)N[C@H]2CCCCC/C=C\[C@@H]3C[C@@]3(C(=O)NS(=O)(=O)C3CC3)NC(=O)[C@@H]3C[C@@H](Oc4nc5c(F)cccc5nc4C)CN3C2=O)no1 [Example 56]
Key: y

---

System: HCV replicon with a R155K mutation in a 1a-H77 background
PROTOCOL DESCRIPTION: transient replicon assay, R155K mutation in 1a-H77 background
Format: cell-based, hepatitis C virus (genotype 1a-H77)
ASSAY SETUP: Hepatitis C virus, read-out: EC50 in a transient replicon assay with a R155K mutation in a 1a-H77 background
READOUT LABEL: EC50

Here is how some molecules turned out for EC50.
| STRUCTURE | ENDPOINT VALUE |
| --- | --- |
| CC(C)(C)OC(=O)N[C@H]1CCCCC/C=C\[C@@H]2C[C@@]2(C(=O)NS(=O)(=O)C2CC2)NC(=O)[C@@H]2C[C@@H](Oc3nc4cc(F)ccc4nc3C(F)(F)F)CN2C1=O | < 1 nM |
| CC(C)(C)OC(=O)N[C@H]1CCCCC/C=C\[C@@H]2C[C@@]2(C(=O)NS(=O)(=O)C2CC2)NC(=O)[C@@H]2C[C@@H](Oc3nc4ccccc4nc3C(C)(F)F)CN2C1=O | < 1 nM |

Now consider a different molecule.
Exercise: Would you kindly share the measured EC50 for CCc1nc2ccc(F)cc2nc1O[C@@H]1C[C@H]2C(=O)N[C@]3(C(=O)NS(=O)(=O)C4CC4)C[C@H]3/C=C\CCCCC[C@H](NC(=O)c3cc(C)on3)C(=O)N2C1 ?
Key: 1 to 10 nM

---

List of EC50 values.
System: HCV replicon with a D168E mutation in a 1a-H77 background
PROTOCOL DESCRIPTION: transient replicon assay, D168E mutation in 1a-H77 background
Format: cell-based, hepatitis C virus (genotype 1a-H77)
ASSAY SETUP: Hepatitis C virus, read-out: EC50 in a transient replicon assay with a D168E mutation in a 1a-H77 background

Study these solved cases before continuing.
| STRUCTURE | ENDPOINT VALUE |
| --- | --- |
| CC(C)[C@@H](C(=O)N[C@H]1CCCCC/C=C\[C@@H]2C[C@@]2(C(=O)NS(=O)(=O)C2CC2)NC(=O)[C@@H]2C[C@@H](Oc3nc4ccccc4nc3C(F)(F)F)CN2C1=O)N1CCCNC1=O | > 100 nM |
| Cc1nc2ccc(F)cc2nc1O[C@@H]1C[C@H]2C(=O)N[C@]3(C(=O)NS(=O)(=O)C4CC4)C[C@H]3/C=C\CCCCC[C@H](NC(=O)OC(C)(C)C)C(=O)N2C1 | 3 to 20 nM |
| CC(F)(F)c1nc2ccccc2nc1O[C@@H]1C[C@H]2C(=O)N[C@]3(C(=O)NS(=O)(=O)C4CC4)C[C@H]3/C=C\CCCCC[C@H](NC(=O)c3ccon3)C(=O)N2C1 | < 3 nM |

Exercise: What EC50 value was documented for this molecule, Cc1cc(C(=O)N[C@H]2CCCCC/C=C\[C@@H]3C[C@@]3(C(=O)NS(=O)(=O)C3(C)CC3)NC(=O)[C@@H]3C[C@@H](Oc4nc5cc(F)cc(Br)c5nc4C)CN3C2=O)no1 ?
Key: 3 to 20 nM

Exercise: Another molecule: Cc1nc2ccc(F)cc2nc1O[C@@H]1C[C@H]2C(=O)N[C@]3(C(=O)NS(=O)(=O)C4CC4)C[C@H]3/C=C\CCCCC[C@H](NC(=O)c3noc(C)c3C)C(=O)N2C1
Key: < 3 nM

Exercise: Also need Cc1onc(C(=O)N[C@H]2CCCCC/C=C\[C@@H]3C[C@@]3(C(=O)NS(=O)(=O)C3(C)CC3)NC(=O)[C@@H]3C[C@@H](Oc4nc5cc(F)ccc5nc4C(F)(F)F)CN3C2=O)c1C , thanks.
Key: < 3 nM

Exercise: Repeat for the following molecule: Cc1onc(C(=O)N[C@H]2CCCCC/C=C\[C@@H]3C[C@@]3(C(=O)NS(=O)(=O)C3CC3)NC(=O)[C@@H]3C[C@@H](Oc4nc5ccccc5nc4C(C)(F)F)CN3C2=O)c1C
Key: < 3 nM

Exercise: Now the molecule CCc1nc2ccc(F)cc2nc1O[C@@H]1C[C@H]2C(=O)N[C@]3(C(=O)NS(=O)(=O)C4CC4)C[C@H]3/C=C\CCCCC[C@H](NC(=O)c3cc(C)on3)C(=O)N2C1
Key: 20 to 50 nM
